# assay summary: Cytotoxicity against human SF295 cells at 10 uM after 48 hrs by SRB assay
# Type: functional
# condition description: SF-295, 48 h, read-out: GI
measured attribute: inhibition of growth at 10 µM
# number then unit; no other words

Cc1nc2cc(Nc3nc(Nc4ccc(F)cc4)nc(-c4cccs4)n3)ccc2n1Cc1ccccc1    48.1%
Cc1nc2cc(Nc3nc(NCCN)nc(Nc4ccc(F)cc4)n3)ccc2n1Cc1ccccc1    20.2%
Cc1nc2cc(Nc3nc(Nc4ccc(F)cc4)nc(-c4ccccc4)n3)ccc2n1Cc1ccccc1    17.3%

// batch mode: one inhibition of growth at 10 µM value per listed entry
1. Cc1nc2ccc(Nc3nc(NCCN)nc(Nc4ccc(F)cc4)n3)cc2n1Cc1ccccc1
2. Cc1nc2ccc(Nc3nc(NCCO)nc(Nc4ccc(F)cc4)n3)cc2n1Cc1ccccc1
3. Cc1nc2cc(Nc3nc(Nc4ccc(F)cc4)nc(-c4ccc(Cl)cc4)n3)ccc2n1Cc1ccccc1
4. Cc1nc2ccc(Nc3nc(Cl)nc(Nc4ccc(F)cc4)n3)cc2n1Cc1ccccc1
5. Cc1nc2cc(Nc3nc(Cl)nc(Nc4ccc(F)cc4)n3)ccc2n1Cc1ccccc1
6. COc1ccc(-c2nc(Nc3ccc(F)cc3)nc(Nc3ccc4c(c3)nc(C)n4Cc3ccccc3)n2)cc1

Solution:
11.6%
11%
9.63%
21.8%
3.61%
51%
